The reported measurements were obtained from patent US20240246918A1.

- System: COLO 205 colorectal tumor cells
- testDetails: Tumor cell viability inhibition assay (CellTiter-Glo 2.0, 72 hours)
- Assay type: cell-based
- measurementSetup: Homo sapiens, COLO 205, 72 h, COLO 205 cell viability
measuredAttribute: IC50

[[record]]
molecule = "Cc1cc(-c2cc(Cl)ccc2OCCn2c(C)nc3c(c2=O)CC(N(C)Cc2cncnc2)CC3)c2scc(C(=O)O)c2n1 (stereo not drawn)"
resultvalue = "< 5 µM"

[[record]]
molecule = "Cc1cc(-c2cc(Cl)ccc2OCCn2c(C)nc3c(c2=O)C[C@@H](N2C[C@@H]4CC(F)(F)C[C@@H]4C2)CC32CC2)c2scc(C(=O)O)c2n1 (single isomer, unassigned)"
resultvalue = "< 5 µM"

[[record]]
molecule = "Cc1cc(-c2cc(Cl)ccc2OCCn2c(C)nc3c(c2=O)CC2(CC3)CCN(C)CC2)c2scc(C(=O)O)c2n1"
resultvalue = "> 20 µM"

[[record]]
molecule = "CCN(Cc1ccnc(OC)c1)C1CCc2nc(C)n(CCOc3ccc(Cl)cc3-c3cc(C)nc4c(C(=O)O)csc34)c(=O)c2C1 (stereo not drawn)"
resultvalue = "< 5 µM"

[[record]]
molecule = "Cc1cc(-c2cc(Cl)ccc2OCCn2c(C)nc3c(c2=O)CC(N(C)Cc2ncc[nH]2)CC3)c2scc(C(=O)O)c2n1 (stereo not drawn)"
resultvalue = "> 20 µM"

[[record]]
molecule = "Cc1cc(-c2cc(Cl)ccc2OCCn2c(C)nc3c(c2=O)C[C@@H](N2CCC[C@@]4(C2)CC4(F)F)CC3)c2scc(C(=O)O)c2n1 (single isomer, unassigned)"
resultvalue = "< 5 µM"

